- assay procedure: NCI Yeast Anticancer Drug Screen. Data for the bub3 strain (AID 167)
- condition summary: S. cerevisiae bub3 mutant strain, at 5.0 µM (retest, dose inferred, filed as 0.5)
- Procedure: Growth inhibition of yeast strains with defined genetic alterations is measured as a screen for potential anti-cancer activity. Selected strains with alterations in DNA damage repair or cell cycle control were exposed to compounds and growth inhibition was measured relative to vehicle treated controls. The strain used in this assay is bub3
The panel holds about 79,000 compounds, 15% with a hit somewhere; the sample as a whole holds those more often. Activity calls are given as the source filed them. No stated cut-off is given here; in the data, active means growth inhibition above about 70%; inactive means the rest.
Labels: yes = active, no = inactive

{"compound": "Cc1cccc2c1Oc1cc(Cl)ccc1C2NC(=O)CCN1CCN(CCO)CC1 (stereo not drawn)", "group label": "no"}
{"compound": "CCOC(=O)C1=C(Nc2ccc(Br)cc2)OC/C1=N\\NC(=O)c1ccccc1O", "group label": "no"}
{"compound": "COc1cccc2c1C(=O)c1c(O)c3c(c(O)c1C2=O)C[C@@](O)(C(=O)CO)C[C@@H]3OC1CC(N(C)C)C(O)C(C)O1 (stereo partly drawn)", "group label": "yes"}
{"compound": "NCC(CS)C(=O)NC(CS)C(=O)NC(CS)C(=O)NCCNc1ccc(NCCNC(=O)C(CS)NC(=O)C(CS)NC(=O)C(CN)CS)c2c1C(=O)c1c(O)ccc(O)c1C2=O (stereo not drawn)", "group label": "no"}
{"compound": "Cc1cc(Cc2ccccc2)ccc1O", "group label": "no"}
{"compound": "CC1C(CCC(=O)O)OC2CC3C4CCC5CC(O)CCC5(C)C4CCC3(C)C21 (stereo not drawn)", "group label": "no"}
{"compound": "NSc1ccc(N)s1", "group label": "no"}
{"compound": "Cc1cc(Cl)nc2ccc(Cc3ccc4nc(Cl)cc(C)c4c3)cc12", "group label": "no"}
{"compound": "O=c1ssc(=Nc2ccc(Cl)cc2)n1-c1ccc(Cl)cc1", "group label": "yes"}
{"compound": "N#C/C(=C/c1ccccc1B(O)O)C(=O)O", "group label": "no"}
{"compound": "CN(C)Cc1ccc(C(C)(C)C)cc1-c1cc(C(C)(C)C)ccc1CN(C)C", "group label": "no"}
{"compound": "CSC(=S)N/N=C(/C)CC(C)C", "group label": "no"}
{"compound": "COc1ccc(-c2n[nH]c(C(F)(F)F)c2N=NN(C)C)cc1OC", "group label": "yes"}
{"compound": "O=C(O)c1ccc(Br)cc1C(=O)c1ccccc1", "group label": "no"}
{"compound": "CCCCCCCCCC(=O)CC(=O)c1ccc(O)cc1O", "group label": "no"}
{"compound": "COC1/C=C\\C=C(/C)C(=O)NC2=CC(=O)C(N)=C(CC(C)CC(OC)C(O)C(C)C=C(C)C1OC(N)=O)C2=O (stereo not drawn)", "group label": "no"}
{"compound": "CC(C)(C)c1cc2c(c(C(C)(C)C)c1O)CC(=O)O2", "group label": "no"}
{"compound": "CCc1nc(N)nc(N)c1-c1ccc(NCCc2ccccc2)c([N+](=O)[O-])c1", "group label": "no"}
{"compound": "Clc1ccc(C2=Nc3ccccc3SC(c3ccc(Cl)c(Cl)c3)C2)c(Cl)c1 (stereo not drawn)", "group label": "no"}
{"compound": "CCN(CC)CCCC(C)Nc1cc(C)nc2c1ccc1c2ccc2c(NC(C)CCCN(CC)CC)cc(C)nc21 (stereo not drawn)", "group label": "no"}
{"compound": "COc1ccc(C2SC(N)=Nc3c2c(C)nn3C(=O)c2ccccc2O)cc1OC (stereo not drawn)", "group label": "no"}
{"compound": "CC(=O)OC(C#N)CC(C)(C)/[N+]([O-])=[N+](\\[O-])C(C)(C)CC(C#N)OC(C)=O (stereo not drawn)", "group label": "no"}
{"compound": "O=C(N/C(=C\\c1ccc(Br)cc1)c1nc2ccccc2[nH]1)c1ccccc1", "group label": "no"}
{"compound": "N#Cc1c(Cl)nsc1-c1ccc([N+](=O)[O-])cc1", "group label": "no"}
{"compound": "O=C(/C(=N/O)[n+]1ccccc1)c1ccccc1", "group label": "no"}
{"compound": "Cc1c(N=Nc2ccc(Cl)cc2)c(-c2ccccc2)n(C2OC(CO)C(O)C(O)C2O)c(=S)c1C#N (stereo not drawn)", "group label": "no"}
{"compound": "O=C1NC(Cc2ccccc2)C(=O)O1 (stereo not drawn)", "group label": "no"}
{"compound": "COc1ccc(C2c3cc4c(cc3OC(N3CCCC3)C2C)OCO4)c(OC)c1 (stereo not drawn)", "group label": "no"}
{"compound": "CCCCc1c2c(nc3c1CCC/C3=C\\c1ccccc1)C(=O)C(CN(C)C)CC2 (stereo not drawn)", "group label": "no"}
{"compound": "CC(=O)C1(C(C)=O)C2=C(C(=O)C(Cl)=C(Cl)C2=O)N2C=CC=CC21 (stereo not drawn)", "group label": "yes"}
{"compound": "O=C(CC1(O)CCCCC1)OC1CCCC1", "group label": "no"}
{"compound": "COc1cc(C2c3cc4c(cc3[C@@H](OCCN)[C@H]3COC(=O)C23)OCO4)cc(OC)c1O (stereo partly drawn)", "group label": "no"}
{"compound": "O=c1nc(-c2ccccc2)cc(-c2ccccc2O)[nH]1", "group label": "no"}
{"compound": "CCOC(=O)CC(=O)/C=C/c1ccncc1", "group label": "no"}
{"compound": "O=C1CCC(O)N1CN1C(=O)CCC1O (stereo not drawn)", "group label": "no"}
{"compound": "CC(O)CCCOC(c1ccccc1)(c1ccccc1)c1ccccc1 (stereo not drawn)", "group label": "no"}
{"compound": "CCN(CC)CCC(=O)c1ccc(Oc2ccc(C)cc2)cc1", "group label": "no"}
{"compound": "CCN(CC)CCOc1ccc(NC(=S)Nc2ccc(OCC(C)C)cc2)cc1", "group label": "no"}
